# reported KSV (Stern–Volmer quenching constant); entries follow
target: Human Serum Albumin (HSA) (Homo sapiens, UniProt P02768); construct: HSA (≥96%) and six PFAS were all purchased from Aladdin Chemicals (Shanghai, China); purchased Aladdin Chemicals (Shanghai, China); experiment: Fluorescence quenching of HSA by PFAS (Stern–Volmer, double logarithmic and Van't Hoff analysis); assay type: binding; details: T = 304 K
Sequence (P02768 25-609): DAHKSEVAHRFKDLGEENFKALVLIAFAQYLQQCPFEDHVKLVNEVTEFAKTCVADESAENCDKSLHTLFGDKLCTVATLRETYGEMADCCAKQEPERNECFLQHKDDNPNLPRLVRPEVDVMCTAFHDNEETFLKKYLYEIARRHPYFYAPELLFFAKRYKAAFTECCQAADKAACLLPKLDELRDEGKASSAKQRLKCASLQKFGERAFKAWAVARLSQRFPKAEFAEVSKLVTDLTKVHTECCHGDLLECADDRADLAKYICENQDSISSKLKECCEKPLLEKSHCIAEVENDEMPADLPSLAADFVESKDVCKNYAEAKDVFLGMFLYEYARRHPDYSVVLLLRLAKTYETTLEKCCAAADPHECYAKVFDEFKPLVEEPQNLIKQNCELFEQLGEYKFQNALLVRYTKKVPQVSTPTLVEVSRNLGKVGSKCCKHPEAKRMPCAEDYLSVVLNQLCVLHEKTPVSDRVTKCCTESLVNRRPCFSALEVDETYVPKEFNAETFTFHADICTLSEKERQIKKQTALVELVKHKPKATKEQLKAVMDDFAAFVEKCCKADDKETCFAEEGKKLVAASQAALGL
Measured quantity: KSV (Stern–Volmer quenching constant)

Compound: O=C(O)C(F)(F)C(F)(F)C(F)(F)C(F)(F)C(F)(F)C(F)(F)C(=O)O
Result: 0.51 ± 0.04 × 10^4 L·mol^−1
--
Compound: O=C(O)C(F)(F)OC(F)(F)C(F)(F)OC(F)(F)C(F)(F)OC(F)(F)F
Result: 1.03 ± 0.06 × 10^4 L·mol^−1
--
Compound: O=C(O)C(F)(F)C(F)(F)C(F)(F)C(F)(F)C(F)(F)C(F)(F)F
Result: 0.53 ± 0.07 × 10^4 L·mol^−1
--
Compound: O=C(O)C(F)(F)C(F)(F)C(F)(F)C(F)(F)C(F)(F)C(F)(F)C(F)(F)F
Result: 1.46 ± 0.09 × 10^4 L·mol^−1
--
Compound: O=C(O)C(F)(OC(F)(F)C(F)(OC(F)(F)C(F)(F)C(F)(F)F)C(F)(F)F)C(F)(F)F (stereo not drawn)
Result: 1.95 ± 0.13 × 10^4 L·mol^−1
--
Compound: O=C(O)C(F)(F)C(F)(F)C(F)(F)C(F)(F)C(F)(F)C(F)(F)C(F)(F)C(F)(F)F
Result: 2.35 ± 0.11 × 10^4 L·mol^−1
